The measurements presented in this section are drawn from paper PMC6201930.

Experiment: Cytotoxicity in stimulated PBMCs (CellTitre-Glo ATP)
Conditions: human, Stimulated PBMC (CC50), PHA/IL-2 stimulated, 72 hours; average ± SD
Procedure: When considering compounds for potential readthrough therapy it is important to monitor cellular and animal safety. In order to determine the most promising compounds to further evaluate in in vivo safety, we measured cytotoxicity in two different cell types. […] Frozen human Peripheral Blood Mononuclear Cells (PBMCs) were obtained from […] […] Cell viability was determined using a chemiluminescent assay to monitor adenosine triphosphate (ATP) levels in live cells (CellTitre-Glo; CTG; Promega, Cat#G7571). […]
READOUT_TYPE: CC50 at 72 h (µM)
Answer format: numeric, µM implied, no suffix.

What CC50 at 72 h value was documented for this compound, CN[C@@H]1[C@@H](O)[C@@H](O[C@@H]2[C@@H](O)[C@H](O[C@H]3O[C@H](CO)[C@@H](O)[C@H](O)[C@H]3N)[C@@H](N)C[C@H]2N)OC[C@]1(C)O (stereo in doubt) [Gentamicin X2, gentamicin X2] ? 2970

----------
Test system: zebrafish neuromasts (hair cells)
Experiment: Neuromast toxicity assay (DASPEI staining)
Details: read-out: Neuromast (CC50); zebrafish embryos 5 dpf, 24 hours exposure; maximum of two measurements
READOUT_TYPE: CC50 (µM)
Response body: numeric value in µM, unit text excluded.

Entry C[C@@H](O)C1O[C@H](O[C@@H]2C(N)C[C@@H](NC(=O)[C@@H](O)CCN)[C@@H](O)C2O[C@@H]2O[C@H](CN)[C@H](O)C2O)[C@@H](N)C(O)[C@@H]1O (stereo partly shown) [NB84, reference compound] has what CC50? 8

----------
System: activated human peripheral blood mononuclear cells (PBMCs)
Experiment: Cytotoxicity in stimulated PBMCs (CellTitre-Glo ATP)
Conditions: read-out: Stimulated PBMC CC50; AVERAGE (S1 File)
READOUT_TYPE: CC50 (µM)
# output: bare number, implied unit µM

Which CC50 value belongs to C[C@@H](O)C1O[C@H](O[C@@H]2C(N)C[C@@H](NC(=O)[C@@H](O)CCN)[C@@H](O)C2O[C@@H]2O[C@H](CN)[C@H](O)C2O)[C@@H](N)C(O)[C@@H]1O (stereo partly shown) [NB84, reference compound] ? 440

----------
Tested on: tGFP-CFTR542X-HA-HIS construct (codon 542 UGA) in 293H cells
Test: tGFP-542X readthrough assay (HA-HIS MSD immunoassay)
Format: cell-based, human
Settings: maximum readthrough above background; average ± SD
Assign labels as follows, please: Y for tGFP-542X Maxfold below 3 fold; N for tGFP-542X Maxfold equal to or exceeding 3 fold.

| MOLECULE | ASSIGNED_LABEL |
| --- | --- |
| CN[C@@H]1[C@@H](O)[C@@H](O[C@@H]2[C@@H](O)[C@H](O[C@H]3O[C@H](CO)[C@@H](O)[C@H](O)[C@H]3N)[C@@H](N)C[C@H]2N)OC[C@]1(C)O (stereo in doubt) [Gentamicin X2, gentamicin X2] | N |
| C[C@@H](O)C1O[C@H](O[C@@H]2C(N)C[C@@H](NC(=O)[C@@H](O)CCN)[C@@H](O)C2O[C@@H]2O[C@H](CN)[C@H](O)C2O)[C@@H](N)C(O)[C@@H]1O (some centres unmarked) [NB84, reference compound] | N |
| CN[C@@H]1[C@@H](O)[C@@H](O[C@@H]2[C@@H](O)[C@H](O[C@H]3O[C@H]([C@@H](C)O)[C@@H](O)[C@H](O)[C@H]3N)[C@@H](N)C[C@H]2N)OC[C@]1(C)O [G418, reference compound] | N |

Now turn to the next molecule.
Is the reported tGFP-542X Maxfold for CN[C@@H]1[C@@H](O)[C@@H](O[C@@H]2[C@@H](O)[C@H](O[C@H]3OC(CN)=CC[C@H]3N)[C@@H](N)C[C@H]2N)OC[C@]1(C)O [Sisomycin] strictly below 3 fold? Y

----------
Assay: in vitro
Settings: mouse, Myoblast (CC50), average ± SD
READOUT_TYPE: CC50 (µM)
Provide the reading as a plain figure in µM.

Which measured CC50 value corresponds to CN[C@@H]1[C@@H](O)[C@@H](O[C@@H]2[C@@H](O)[C@H](O[C@H]3O[C@H]([C@@H](C)O)[C@@H](O)[C@H](O)[C@H]3N)[C@@H](N)C[C@H]2N)OC[C@]1(C)O [G418, reference compound] ? 166

----------
Assay: Pharmacokinetics of aminoglycosides in the rat
Details: plasma, sc, 10 mg/kg
READOUT_TYPE: AUC(0-t) (ng·h/mL)
Give the quantity in ng·h/mL, number only.

Please report the recorded AUC(0-t) for CN[C@@H]1[C@@H](O)[C@@H](O[C@@H]2[C@@H](O)[C@H](O[C@H]3O[C@H](CO)[C@@H](O)[C@H](O)[C@H]3N)[C@@H](N)C[C@H]2N)OC[C@]1(C)O (stereo in doubt) [Gentamicin X2, gentamicin X2] . 13000

----------
Tested on: p53 R213* UGA premature termination codon in HDQ-P1 mammary carcinoma cells
Assay: HDQ-p53UGA213 readthrough assay (full-length p53, MSD immunoassay)
Assay type: cell-based, human
Details: AVERAGE (S1 File)
READOUT_TYPE: HDQ-p53UGA213 max
Returns: the value as a bare number; no unit string appended.

Examples with answers:
| MOLECULE | HDQ-p53UGA213 max |
| --- | --- |
| CN[C@@H]1[C@@H](O)[C@@H](O[C@@H]2[C@@H](O)[C@H](O[C@H]3O[C@H]([C@@H](C)NC)CC[C@H]3N)[C@@H](N)C[C@H]2N)OC[C@]1(C)O | 4.8 |
| CN[C@@H]1[C@@H](O)[C@@H](O[C@@H]2[C@@H](O)[C@H](O[C@H]3O[C@H]([C@@H](C)N)CC[C@H]3N)[C@@H](N)C[C@H]2N)OC[C@]1(C)O | 5.8 |
| CN[C@@H]1[C@@H](O)[C@@H](O[C@@H]2[C@@H](O)[C@H](O[C@H]3O[C@H]([C@@H](C)O)[C@@H](O)[C@H](O)[C@H]3N)[C@@H](N)C[C@H]2N)OC[C@]1(C)O [G418, reference compound] | 43.8 |
| C[C@@H](O)C1O[C@H](O[C@@H]2C(N)C[C@@H](NC(=O)[C@@H](O)CCN)[C@@H](O)C2O[C@@H]2O[C@H](CN)[C@H](O)C2O)[C@@H](N)C(O)[C@@H]1O (stereo partly shown) [NB84, reference compound] | 29.7 |
| CN[C@@H]1[C@@H](O)[C@@H](O[C@@H]2[C@@H](O)[C@H](O[C@H]3O[C@H]([C@H](C)N)CC[C@H]3N)[C@@H](N)C[C@H]2N)OC[C@]1(C)O | 4.2 |
| CN[C@@H]1[C@@H](O)[C@@H](O[C@@H]2[C@@H](O)[C@H](O[C@H]3O[C@H](CO)[C@@H](O)[C@H](O)[C@H]3N)[C@@H](N)C[C@H]2N)OC[C@]1(C)O (stereo in doubt) | 39.1 |

// returns reported HDQ-p53UGA213 max for input CN[C@@H]1[C@@H](O)[C@@H](O[C@@H]2[C@@H](O)[C@H](O[C@H]3O[C@H](CO)[C@@H](O)[C@H](O)[C@H]3N)[C@@H](N)C[C@H]2N)OC[C@H]1O 2.7

----------
Assay: Cytotoxicity in stimulated PBMCs (CellTitre-Glo ATP)
Conditions: human, Stimulated PBMC CC50, individual determinations (S1 File)
READOUT_TYPE: CC50 at 72 h (mM)
Please reply with the bare figure in mM and do not write the unit itself.

Return reported CC50 at 72 h; argument: CN[C@@H]1[C@@H](O)[C@@H](O[C@@H]2[C@@H](O)[C@H](O[C@H]3O[C@H](CO)[C@@H](O)[C@H](O)[C@H]3N)[C@@H](N)C[C@H]2N)OC[C@]1(C)O (stereo in doubt) [Gentamicin X2, gentamicin X2] 3.74

----------
Experiment: Neuromast toxicity assay (DASPEI staining)
Conditions: zebrafish, zebrafish embryos 5 dpf, neuromasts (hair cells), other: embryos exposed to the drug in 24-well plates, Neuromast CC50, AVERAGE (S1 File)
Entries and their CC50 at 24 h
Numbers only here, please. The scale is µM.

Here is how some compounds turned out for CC50 at 24 h.
| COMPOUND | CC50 at 24 h (µM) |
| --- | --- |
| CN[C@@H]1[C@@H](O)[C@@H](O[C@@H]2[C@@H](O)[C@H](O[C@H]3O[C@H](CO)[C@@H](O)[C@H](O)[C@H]3N)[C@@H](N)C[C@H]2N)OC[C@]1(C)O (stereo in doubt) | 13.9 |
| CN[C@@H]1[C@@H](O)[C@@H](O[C@@H]2[C@@H](O)[C@H](O[C@H]3O[C@H]([C@@H](C)N)CC[C@H]3N)[C@@H](N)C[C@H]2N)OC[C@]1(C)O | 2.8 |
| CN[C@@H]1[C@@H](O)[C@@H](O[C@@H]2[C@@H](O)[C@H](O[C@H]3O[C@H]([C@H](C)N)CC[C@H]3N)[C@@H](N)C[C@H]2N)OC[C@]1(C)O | 2.7 |
| CN[C@@H]1[C@@H](O)[C@@H](O[C@@H]2[C@@H](O)[C@H](O[C@H]3O[C@H]([C@@H](C)NC)CC[C@H]3N)[C@@H](N)C[C@H]2N)OC[C@]1(C)O | 9.4 |

For the next question, use this compound.
Recorded CC50 at 24 h of CN[C@@H]1[C@@H](O)[C@@H](O[C@@H]2[C@@H](O)[C@H](O[C@H]3O[C@H](CO)[C@@H](O)[C@H](O)[C@H]3N)[C@@H](N)C[C@H]2N)OC[C@H]1O , please. 17
